# Assay info: Inhibition of testosterone-5-alpha-reductase at 50 ug/mL
Readout kind: inhibition (%)

C=C(C)C(CC=C(C)C)Cc1c(O)cc(O)c2c1O[C@H](c1ccccc1O)CC2=O (stereo partly drawn): 21.9

I: C=C(C)C(CCC(C)(C)O)Cc1c(O)cc(OC)c2c1O[C@H](c1ccc(O)cc1O)CC2=O (stereo partly drawn)
II: CC1(C)C=Cc2c(ccc3c2OC[C@@H](c2ccc(O)cc2O)C3)O1
III: C=C(C)C(CC=C(C)C)Cc1c(O)cc(OC)c2c1O[C@H](c1ccccc1O)CC2=O (stereo partly drawn) [KUSHENOL R]
Req: // ranking: key=inhibition, reverse=True Rank the items, then write their labels in that order.
Resp: II, III, I
(II: 32.5%, III: 4.1%, I: -1%)
